Test: refractive index (Na D-line) (dimensionless); mn = molality of the nth substance listed, in mol/kg
Conditions: 308.15 K; 101 kPa; Liquid; Standard Abbe refractometry; m1 = 0.9
measured_quantity: refractive index

Prompt: Query: refractive index; subject: O=P(O)(O)O [phosphoric acid] + O
Completion: 1.3388

Prompt: Could you tell me which refractive index is on file for O=P([O-])([O-])[O-].[Na+].[Na+].[Na+] [trisodium phosphate] + O ?
Completion: 1.3653

Prompt: Looking for the measured refractive index of O=P([O-])(O)O.[K+] [monopotassium phosphate] + O , can you help?
Completion: 1.3455

* * *

Assay: mn = molality of the nth substance listed, in mol/kg
Details: 298.15 K; 101 kPa; Liquid; Sing-around technique in a fixed-path interferometer; m1 = 0.1
measured_quantity: speed of sound (m/s)

Prompt: Sample O=P([O-])(O)O.[K+] [monopotassium phosphate] + O — what was its speed of sound?
Completion: 1506.5

Prompt: Please give the measured speed of sound for this molecule: O=P([O-])([O-])O.[K+].[K+] [dipotassium hydrogen phosphate] + O
Completion: 1512.8

Prompt: If you can, please state the reported speed of sound value of O=P(O)(O)O [phosphoric acid] + O .
Completion: 1497.1

Prompt: Which speed of sound is reported for this molecule? O=P([O-])([O-])O.[Na+].[Na+] [disodium hydrogen phosphate] + O
Completion: 1514.6

Prompt: Which speed of sound value is on record for O=P([O-])(O)O.[Na+] [sodium dihydrogen phosphate] + O ?
Completion: 1507.1

Prompt: # speed of sound lookup, item O=P([O-])([O-])[O-].[K+].[K+].[K+] [tripotassium phosphate] + O
Completion: 1518.2

Prompt: For O=P([O-])([O-])[O-].[Na+].[Na+].[Na+] [trisodium phosphate] + O , what is its reported speed of sound?
Completion: 1519.7

Prompt: Can you look up the measured speed of sound of O=P([O-])(O)O.[Li+] [lithium dihydrogen phosphate] + O for me?
Completion: 1506.5

Values compiled from the NIST ThermoML archive (doi:10.1016/j.jct.2013.01.012).
